target.or.system: mouse FADS1 (Mus musculus)
readout.kind: IC50 (nM)
Answer in nM, number only, no unit symbol.

IC50 in this record for COc1ccn2c(=O)c(-c3cnn(CC(F)(F)C(F)(F)F)c3)c(C(F)(F)F)nc2c1 [Compound A] : 4

---

target.or.system: FADS1 (Mus musculus, UniProt Q920L1)
Construct: Liver from ^13C5-DGLA dosed DIO mice was collected for pharmacodynamic (PD) analysis; from tissue; host or cells: living DIO C57Bl/6 mice; 13C5-DGLA to 13C5-AA conversion read in liver (A4) or blood plasma (A5)
Sequence (Q920L1 whole entry): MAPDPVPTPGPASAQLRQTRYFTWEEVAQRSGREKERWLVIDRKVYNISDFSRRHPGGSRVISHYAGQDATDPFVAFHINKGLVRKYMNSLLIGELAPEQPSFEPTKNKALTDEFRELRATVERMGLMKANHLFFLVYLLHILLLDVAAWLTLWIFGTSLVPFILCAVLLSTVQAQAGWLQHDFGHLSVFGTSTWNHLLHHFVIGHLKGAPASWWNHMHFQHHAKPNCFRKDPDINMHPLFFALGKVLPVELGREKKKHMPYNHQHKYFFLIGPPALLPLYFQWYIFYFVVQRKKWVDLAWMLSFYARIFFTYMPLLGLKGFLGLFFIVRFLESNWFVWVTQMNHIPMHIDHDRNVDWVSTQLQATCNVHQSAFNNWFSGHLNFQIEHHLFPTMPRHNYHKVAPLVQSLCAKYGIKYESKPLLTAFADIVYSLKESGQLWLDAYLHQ
test.summary: In vivo FADS1 activity measurement using the liver (13C5-DGLA to 13C5-AA conversion)
assay.context: liver of DIO mice, unbound plasma concentration; read-out: Free (unbound) in vivo IC50
Below, each entry is listed with its recorded IC50.

The compound identified as COc1ccn2c(=O)c(-c3cnn(CC(F)(F)C(F)(F)F)c3)c(C(F)(F)F)nc2n1 [Compound B] registered its IC50 at 4 nM

Lab book: IC50 of N#Cc1ccn2c(=O)c(-c3cnn(CC(F)(F)C(F)(F)F)c3)c(C(F)(F)F)nc2c1 [Compound C] noted as 4 nM

Record COc1ccn2c(=O)c(-c3cnn(CC(F)(F)C(F)(F)F)c3)c(C(F)(F)F)nc2c1 [Compound A] , field IC50: 2 nM
